Reference source: the supplement of paper PMC7877785

Protocol text: self-splicing fitness, log relative to wild type (ln ratio); higher = more splicing; Tetrahymena group I intron in knt gene, E. coli kanamycin selection, DiMSum; sequences stand for … in CUCUCU…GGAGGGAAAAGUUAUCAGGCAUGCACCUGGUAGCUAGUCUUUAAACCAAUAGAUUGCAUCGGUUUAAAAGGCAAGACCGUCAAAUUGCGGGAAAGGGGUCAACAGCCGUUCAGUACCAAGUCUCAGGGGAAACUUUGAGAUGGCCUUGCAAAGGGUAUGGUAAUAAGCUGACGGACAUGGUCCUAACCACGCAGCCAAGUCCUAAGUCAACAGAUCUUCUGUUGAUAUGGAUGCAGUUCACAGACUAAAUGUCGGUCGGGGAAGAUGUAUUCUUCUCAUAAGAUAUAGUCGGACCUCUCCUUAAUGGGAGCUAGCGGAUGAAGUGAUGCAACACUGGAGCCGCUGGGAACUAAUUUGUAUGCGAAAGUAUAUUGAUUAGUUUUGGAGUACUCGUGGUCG;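 also: selection with 25 µg/mL kanamycin versus none on LB agar overnight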
Condition summary: 30 °C
Value type: self-splicing fitness (ln)
Just the number, please.

**Query** Data request, read-out self-splicing fitness (ln), for CUCAAGCAAUAUUACGAAAG
**Result** -2.12

**Query** Moving on to the next sequence: GUCGAGCAAUAUUACGGUAA
**Result** -1.74

**Query** Thanks! And UGGUAGCAAUAUUACGGGGG ?
**Result** -3.73

**Query** Continue with UCAUAGCAAUAUUACGAAAU
**Result** -2.86

**Query** Could you do the same for UAGUAGCAAUAUUACGAGUC , please?
**Result** -4.06

**Query** What about this sequence? GACCAGCAAUAUUACGCCAG
**Result** -3.98

**Query** Please do the same for CCAGAGCAAUAUUACGUUCC as well.
**Result** -4.16

**Query** Now this one: ACAUAGCAAUAUUACGUUAG
**Result** -3.66

###

Protocol text: self-splicing fitness, log relative to wild type (ln ratio); higher = more splicing; Tetrahymena group I intron in knt gene, E. coli kanamycin selection, DiMSum; sequences stand for … in CUCUCU…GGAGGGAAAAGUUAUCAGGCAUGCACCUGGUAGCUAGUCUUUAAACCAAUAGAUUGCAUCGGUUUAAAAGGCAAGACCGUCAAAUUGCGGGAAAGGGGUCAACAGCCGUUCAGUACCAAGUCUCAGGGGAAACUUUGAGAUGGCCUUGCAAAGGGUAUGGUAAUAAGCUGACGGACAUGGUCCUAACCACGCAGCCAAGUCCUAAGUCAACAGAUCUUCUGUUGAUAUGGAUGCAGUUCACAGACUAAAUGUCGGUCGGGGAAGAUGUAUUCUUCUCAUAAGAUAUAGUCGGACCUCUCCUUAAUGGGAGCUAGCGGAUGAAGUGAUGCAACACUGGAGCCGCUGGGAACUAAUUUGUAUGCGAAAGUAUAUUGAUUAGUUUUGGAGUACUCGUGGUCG
Condition summary: 30 °C
Value type: self-splicing fitness (ln)
Just the number, please, no unit attached.

**Query** Recorded self-splicing fitness (ln) for GGUUAGCAAUAUUACGUGAC , please?
**Result** -2.98

**Query** Also UCCCAGCAAUAUUACGGUUG , if possible.
**Result** -2.97

Others:
**Query** Item under review: AAGCAGCAAUAUUACGAGUG . Reported self-splicing fitness (ln)?
**Result** -2.99

**Query** Query CAUAAGCAAUAUUACGCAAA next
**Result** -2.93

###

In this section, each of the sequences is paired with its reported self-splicing fitness (ln).
Protocol text: self-splicing fitness, log relative to wild type (ln ratio); higher = more splicing; Tetrahymena group I intron in knt gene, E. coli kanamycin selection, DiMSum; sequences stand for … in CUCUCU…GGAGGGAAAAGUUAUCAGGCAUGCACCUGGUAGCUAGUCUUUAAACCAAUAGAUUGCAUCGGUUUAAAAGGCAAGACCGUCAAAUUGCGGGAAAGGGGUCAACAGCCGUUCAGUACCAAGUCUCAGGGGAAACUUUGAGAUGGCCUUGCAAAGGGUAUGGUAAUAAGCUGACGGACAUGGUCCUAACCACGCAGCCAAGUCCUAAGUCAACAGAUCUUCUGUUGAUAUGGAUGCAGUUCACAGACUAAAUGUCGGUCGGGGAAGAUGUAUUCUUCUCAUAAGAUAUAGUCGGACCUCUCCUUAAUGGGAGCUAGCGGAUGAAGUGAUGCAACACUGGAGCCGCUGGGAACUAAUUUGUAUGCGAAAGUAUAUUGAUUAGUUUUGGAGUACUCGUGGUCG
Condition summary: 30 °C
// return a plain number; no unit text

**Query** Param item = GAAAAGCAAUAUUACGGCGU ; retrieve measured self-splicing fitness (ln).
**Result** -0.208

**Query** Next record, please: CACAAGCAAUAUUACGUAAU
**Result** -3.79

**Query** Follow-up item: CAGUAGCAAUAUUACGAACA
**Result** -3.3

---
**Query** Which self-splicing fitness (ln) reading was recorded for the sequence ACCUAGCAAUAUUACGGAUG ?
**Result** -2.77

**Query** What would you report for UACGAGCAAUAUUACGAUCC ?
**Result** -3.23

**Query** Let us now turn to UCGAAGCAAUAUUACGGUGC
**Result** -2.62

**Query** Entry to check: UUAUAGCAAUAUUACGGGUA
**Result** -2.85

**Query** Also, GACGAGCAAUAUUACGCUGU please.
**Result** -3.17

###

Protocol text: self-splicing fitness, log relative to wild type (ln ratio); higher = more splicing; Tetrahymena group I intron in knt gene, E. coli kanamycin selection, DiMSum; sequences stand for … in CUCUCU…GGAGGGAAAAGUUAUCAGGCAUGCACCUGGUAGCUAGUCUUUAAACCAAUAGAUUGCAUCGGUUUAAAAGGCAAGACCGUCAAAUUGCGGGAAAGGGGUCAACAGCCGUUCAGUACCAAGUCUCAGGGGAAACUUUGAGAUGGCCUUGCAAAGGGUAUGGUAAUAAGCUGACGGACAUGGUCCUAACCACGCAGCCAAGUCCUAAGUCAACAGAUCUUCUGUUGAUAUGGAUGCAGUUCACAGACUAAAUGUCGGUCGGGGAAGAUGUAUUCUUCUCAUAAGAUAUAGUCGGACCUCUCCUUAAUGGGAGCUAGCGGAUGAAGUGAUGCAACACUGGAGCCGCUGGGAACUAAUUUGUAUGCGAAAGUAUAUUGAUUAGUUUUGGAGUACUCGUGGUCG
Condition summary: 30 °C
Value type: self-splicing fitness (ln)
Returns: the value as a bare number; no unit string appended.

Example entries begin here.
**Query** Endpoint output: self-splicing fitness (ln) of GGUCAGCAAUAUUACGUUAG . Value?
**Result** -2.17

**Query** Subsequent entry: GCUAAGCAAUAUUACGGAGA
**Result** -3.1

**Query** Follow-up item: UUGCAGCAAUAUUACGGCUU
**Result** 0.193

Next:
**Query** Would you mind telling me what self-splicing fitness (ln) value was observed for CGAAAGCAAUAUUACGACUU ?
**Result** -1.64

**Query** Follow-up item: UAUCAGCAAUAUUACGCAGU
**Result** -2.62

###

Protocol text: self-splicing fitness, log relative to wild type (ln ratio); higher = more splicing; Tetrahymena group I intron in knt gene, E. coli kanamycin selection, DiMSum; sequences stand for … in CUCUCU…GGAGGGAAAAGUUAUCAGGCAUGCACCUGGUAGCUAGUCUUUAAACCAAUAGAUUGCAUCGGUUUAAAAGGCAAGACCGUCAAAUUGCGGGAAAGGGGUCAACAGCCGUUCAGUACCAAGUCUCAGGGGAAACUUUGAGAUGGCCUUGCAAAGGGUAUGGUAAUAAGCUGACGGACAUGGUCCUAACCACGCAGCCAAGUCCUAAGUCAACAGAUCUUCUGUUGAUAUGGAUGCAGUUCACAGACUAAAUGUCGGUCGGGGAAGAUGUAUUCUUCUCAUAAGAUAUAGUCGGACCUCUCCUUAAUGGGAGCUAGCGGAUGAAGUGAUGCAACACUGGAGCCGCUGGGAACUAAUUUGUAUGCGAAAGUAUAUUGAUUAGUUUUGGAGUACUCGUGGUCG
Condition summary: 37 °C
In this section, each of the sequences is paired with its reported self-splicing fitness (ln).
Write the value as a bare number.

Check out these entries, answers already filled in.
**Query** Name the reported self-splicing fitness (ln) value associated with the sequence AAUCAGCAAUAUUACGGGCA
**Result** -0.146

**Query** Also check GCAGAGCAAUAUUACGAGCA
**Result** -2.4

**Query** Would you kindly repeat that for UUCAAGCAAUAUUACGGGUU ?
**Result** -0.76

**Query** CUGCAGCAAUAUUACGACGC , same question.
**Result** -3.06

**Query** Entry to check: GUUAAGCAAUAUUACGCGAC
**Result** -2.15

Others:
**Query** Consider the sequence UGGUAGCAAUAUUACGAGGC and give its measured self-splicing fitness (ln).
**Result** -2.19
